Listed molecules paired with reported survival
- Tested on: DeltatarO mutant
- test.protocol: S. aureus survival, RN4220 and DeltatarO strains – OD600, teichoic acid synthesis inhibitors, primary screen (AID 463173)
- stated.conditions: S. aureus RN4220 wild type/DeltatarO growth, OD600, 18 h, active compounds read low, screened at 18.75 µg/mL (by protocol)
The campaign covered roughly 52,000 compounds. About 4,300 (8.3%) were called active. This excerpt belongs to a sample that is enriched for actives.

Reference set (2 entries):
>  <molecule>
COc1ccc(NS(=O)(=O)c2ccc3[nH]c(=O)ccc3c2)cc1OC

>  <reading>
98% (inactive)

$$$$
>  <molecule>
COc1ccc(/C=C/C(=O)N2CCC(c3nc4ccccc4o3)CC2)cc1OC

>  <reading>
86% (inactive)

$$$$

Q) Looking for the measured survival of c1ccc(Cn2nnnc2C(c2cccs2)N(Cc2cccnc2)Cc2ccco2)cc1 (stereo not given) , can you help?
A) 64% (inactive)

Q) Looking for the measured survival of Cc1ccc(Cl)cc1N1CCN(C(=O)c2cc(S(=O)(=O)N3CCCCC3)cn2C)CC1 , can you help?
A) 83% (inactive)

Q) Looking for the measured survival of COc1ccc2nc(N(Cc3cccnc3)C(=O)COc3ccccc3)sc2c1 , can you help?
A) 90% (inactive)
